endpoint: IC50

**Q:** Using Voltage-gated inwardly rectifying potassium channel KCNH2 (Homo sapiens, UniProt Q12809) as the test system, report measured IC50 of COc1cc(NC(C(=O)c2c[nH]c3ccccc23)c2ccccc2)cc(OC)c1 (racemic) .
**A:** > 50 µM

**Q:** Using Voltage-gated inwardly rectifying potassium channel KCNH2 (Homo sapiens, UniProt Q12809) as the test system, report measured IC50 of COc1cncc(NC(C(=O)c2c[nH]c3ccccc23)c2ccccc2)c1 (stereo not drawn) .
**A:** 3.5 µM

**Q:** Using Voltage-gated inwardly rectifying potassium channel KCNH2 (Homo sapiens, UniProt Q12809) as the test system, report measured IC50 of COc1cc(NC(C(=O)c2c[nH]c3ccccc23)c2ccccc2)cc(OCCO)c1 (single isomer, unassigned; (+)) .
**A:** > 50 µM
